Measured IC50, listed per entry.
Experimental Target: human JAK2 (Homo sapiens, UniProt O60674)
Construct: catalytic domain (amino acids 808-1132; catalog number PV4210); GST
Sequence (O60674 808-1132): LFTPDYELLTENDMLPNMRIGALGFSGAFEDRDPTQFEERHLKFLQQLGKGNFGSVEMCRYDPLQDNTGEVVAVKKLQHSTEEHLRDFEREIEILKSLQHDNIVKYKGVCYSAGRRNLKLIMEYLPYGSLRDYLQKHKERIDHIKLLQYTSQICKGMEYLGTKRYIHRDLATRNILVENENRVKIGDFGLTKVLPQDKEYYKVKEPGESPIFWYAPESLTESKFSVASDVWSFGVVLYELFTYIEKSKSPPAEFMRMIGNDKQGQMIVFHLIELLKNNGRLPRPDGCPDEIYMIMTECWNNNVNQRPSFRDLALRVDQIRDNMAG
Assay Protocol: JAK2 inhibition assay (polyGT substrate / Ulight-JAK1 peptide)
Experimental Context: recombinant human JAK2 catalytic domain; polyGT or Ulight-JAK1 peptide assay

Some solved cases for reference:
Compound | Experimental Target | IC50
CCc1cc(-c2cccnc2)ccc1N(C)c1cc2c(cn1)ncn2C | human JAK2 (Homo sapiens, UniProt O60674) | 101 to 500 nM
CN(c1cc2c(cn1)ncn2C)c1ccccc1OC(F)F | human JAK2 (Homo sapiens, UniProt O60674) | 501 to 1000 nM
CCc1cc(N2CCC(F)(F)C2)ncc1N(C)c1cc2c(cn1)ncn2C | human JAK2 (Homo sapiens, UniProt O60674) | 0.01 to 100 nM
Cc1c(OCc2cccnc2)cccc1N(C)c1cc2c(cn1)ncn2C | human JAK2 (Homo sapiens, UniProt O60674) | > 1000 nM
COCCNC(=O)c1ccc(N(C)c2cc3c(cn2)ncn3C)c(C)c1 | human JAK2 (Homo sapiens, UniProt O60674) | > 1000 nM
CCc1cc(C(=O)NC)ccc1N(C)c1cc2c(cn1)ncn2C | human JAK2 (Homo sapiens, UniProt O60674) | 501 to 1000 nM

Give me measured IC50, please, for this compound: Cc1c(O)cccc1N(C)c1cc2c(cn1)ncn2C
> 1000 nM

Give me measured IC50, please, for this compound: CC(C)CCOc1ccc(N(C)c2cc3c(cn2)ncn3C)cc1
> 1000 nM

Give me measured IC50, please, for this compound: CCc1cc(C(C#N)N2CCN(C)CC2)ccc1N(C)c1cc2c(cn1)ncn2C (stereo not drawn)
101 to 500 nM

----------
Test system: pSTAT1(2)-luciferase reporter in HeLa cells triggered with human OSM
Assay Protocol: JAK-STAT signalling assay
Format: cell-based
Experimental Context: Homo sapiens, HeLa, HeLa cells, pSTAT1(2)-luciferase reporter, human OSM 33 ng/mL; read-out: JAK-STAT IC50
Measured IC50, listed per entry.

Some solved cases for reference:
Smiles Text | Experimental Target | IC50
Cc1cc(OCCCC#N)ccc1N(C)c1cc2c(cn1)ncn2C | pSTAT1(2)-luciferase reporter in HeLa cells triggered with human OSM | > 1000 nM
CCNC(=O)N1CC=C(c2ccc(N(C)c3cc4c(cn3)ncn4C)c(CC)c2)CC1 | pSTAT1(2)-luciferase reporter in HeLa cells triggered with human OSM | 1 to 500 nM

Okay, now this compound:
Give me measured IC50, please, for this compound: CCc1cc(-c2ccccc2)ccc1N(C)c1cc2c(cn1)ncn2C
501 to 1000 nM

----------
Experimental Target: human JAK1 (Homo sapiens)
Construct: catalytic domain, amino acids 866-1154; catalog number PV4774
Assay Protocol: JAK1 inhibition assay (polyGT substrate / Ulight-JAK1 peptide)
Experimental Context: recombinant human JAK1 catalytic domain; polyGT or Ulight-JAK1 peptide assay
pIC50: −log10 of the molar value.
Measured pIC50, listed per entry.

Some solved cases for reference:
Compound | pIC50
CCC(=O)NC1CN(C(C#N)c2ccc(N(C)c3cc4c(cn3)ncn4C)c(CC)c2)C1 (centres unmarked) | 7.00 to 11.00
CCc1cc(-c2ccc(OC)nc2)ccc1N(C)c1cc2c(cn1)ncn2C | 7.00 to 11.00
CCc1cc(O)ccc1N(C)c1cc2c(cn1)ncn2C | 7.00 to 11.00
CN(c1cc2c(cn1)ncn2C)c1ccc(C2CN(S(=O)(=O)N3CCOCC3)C2)cc1OC(F)F | 7.00 to 11.00
CCc1cc(N2CC(F)(F)C2)ncc1N(C)c1cc2c(cn1)ncn2C | 7.00 to 11.00

Give me measured pIC50, please, for this compound: CCc1cc(C2=CCN(C(=O)CCC#N)CC2)ccc1N(C)c1cc2c(cn1)ncn2C
7.00 to 11.00

Give me measured pIC50, please, for this compound: Cc1cc(OCc2ccc(Cl)cc2)ccc1N(C)c1cc2c(cn1)ncn2C
6.00 to 6.30

Give me measured pIC50, please, for this compound: CCOCCOc1ccc(N(C)c2cc3c(cn2)ncn3C)cc1
6.00 to 6.30

Give me measured pIC50, please, for this compound: CCn1nc(-c2ccc(Cl)cc2)cc1N(C)c1cc2c(cn1)ncn2C
7.00 to 11.00

Give me measured pIC50, please, for this compound: CCc1cc(F)ccc1N(C)c1cc2c(cn1)ncn2C
7.00 to 11.00

Give me measured pIC50, please, for this compound: CCc1cc(-c2ccc(C)nc2)ccc1N(C)c1cc2c(cn1)ncn2C
7.00 to 11.00

Give me measured pIC50, please, for this compound: CCc1cc(C2CN(S(=O)(=O)CCOC)C2)ccc1N(C)c1cc2c(cn1)ncn2C
7.00 to 11.00

Give me measured pIC50, please, for this compound: CCc1cc(C2(CCNS(C)(=O)=O)COC2)ccc1N(C)c1cc2c(cn1)ncn2C
7.00 to 11.00

Give me measured pIC50, please, for this compound: CN(c1ccc(CC#N)cc1)c1cc2c(cn1)ncn2C
7.00 to 11.00

Give me measured pIC50, please, for this compound: CCc1ccc(C(N)=O)cc1N(C)c1cc2c(cn1)ncn2C
6.30 to 7.00

Give me measured pIC50, please, for this compound: CCc1cc(-c2c(C)nn(C)c2C)ccc1N(C)c1cc2c(cn1)ncn2C
6.30 to 7.00

Give me measured pIC50, please, for this compound: CCc1cc(C(C#N)N2CCOCC2)ncc1N(C)c1cc2c(cn1)ncn2C (centres unmarked)
7.00 to 11.00

Give me measured pIC50, please, for this compound: CCc1cc(C(=O)NCCO)ccc1N(C)c1cc2c(cn1)ncn2C
7.00 to 11.00

Give me measured pIC50, please, for this compound: CCc1cc(CC#N)ccc1N(C)c1cc2c(cn1)ncn2C
7.00 to 11.00

Give me measured pIC50, please, for this compound: CCc1ccccc1N(CCC#N)c1cc2c(cn1)ncn2C
6.30 to 7.00

Give me measured pIC50, please, for this compound: CCc1cc(CNC(C)=O)ccc1N(C)c1cc2c(cn1)ncn2C
7.00 to 11.00

----------
Measured IC50, listed per entry.
Experimental Target: human JAK1 (Homo sapiens, UniProt P23458)
Construct: catalytic domain, amino acids 866-1154; catalog number PV4774
Sequence (P23458 866-1154): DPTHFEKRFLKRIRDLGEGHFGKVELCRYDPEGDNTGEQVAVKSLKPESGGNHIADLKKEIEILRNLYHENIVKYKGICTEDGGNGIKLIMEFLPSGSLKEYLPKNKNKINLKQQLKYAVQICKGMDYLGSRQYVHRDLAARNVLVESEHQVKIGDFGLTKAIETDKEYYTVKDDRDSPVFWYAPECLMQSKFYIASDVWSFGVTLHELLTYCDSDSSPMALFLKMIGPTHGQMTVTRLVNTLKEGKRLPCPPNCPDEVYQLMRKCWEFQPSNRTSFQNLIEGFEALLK
Assay Protocol: JAK1 inhibition assay (polyGT substrate / Ulight-JAK1 peptide)
Experimental Context: recombinant human JAK1 catalytic domain; polyGT or Ulight-JAK1 peptide assay

Some solved cases for reference:
Compound | Recorded Endpoint | Endpoint Value
CCc1ccc(C(=O)NCc2ccccn2)cc1N(C)c1cc2c(cn1)ncn2C | IC50 | 101 to 500 nM
CCc1cc(-c2cnn(CC(=O)N(C)C)c2)ccc1N(C)c1cc2c(cn1)ncn2C | IC50 | 0.01 to 100 nM
Cc1noc(C)c1COc1ccc(N(C)c2cc3c(cn2)ncn3C)cc1 | IC50 | > 1000 nM
CN(c1cc2c(cn1)ncn2C)c1ccc(CN(C)S(C)(=O)=O)cc1F | IC50 | 0.01 to 100 nM
Cc1cc(O)ccc1N(C)c1cc2c(cn1)ncn2C | IC50 | 0.01 to 100 nM
Cc1cc(OCc2cccnc2)ccc1N(C)c1cc2c(cn1)ncn2C | IC50 | 101 to 500 nM

Give me measured IC50, please, for this compound: CCc1cc(-c2cnc(N3CCOCC3)nc2)ccc1N(C)c1cc2c(cn1)ncn2C
101 to 500 nM

Give me measured IC50, please, for this compound: CN(c1cc2c(cn1)ncn2C)c1ccc(C#N)cc1OC(F)F
101 to 500 nM

Give me measured IC50, please, for this compound: CCc1cc(C(=O)NCC(C)(C)O)ccc1N(C)c1cc2c(cn1)ncn2C
101 to 500 nM

Give me measured IC50, please, for this compound: CCc1cc(C(C#N)N2CC(C#N)C2)ccc1N(C)c1cc2c(cn1)ncn2C (centres unmarked)
0.01 to 100 nM

Give me measured IC50, please, for this compound: CCc1cc(-c2n[nH]c(C3CC3)n2)ccc1N(C)c1cc2c(cn1)ncn2C
101 to 500 nM

Give me measured IC50, please, for this compound: CCc1cc(C(C)O)ccc1N(C)c1cc2c(cn1)ncn2C (centres unmarked)
0.01 to 100 nM

Give me measured IC50, please, for this compound: CN(c1cc2c(cn1)ncn2C)c1ccc(CN(C)S(C)(=O)=O)cc1OC(F)F
0.01 to 100 nM

Give me measured IC50, please, for this compound: CCc1cc(-c2ccc(O)nc2)ccc1N(C)c1cc2c(cn1)ncn2C
0.01 to 100 nM

Give me measured IC50, please, for this compound: CCc1cc(-c2cncc(S(C)(=O)=O)c2)ccc1N(C)c1cc2c(cn1)ncn2C
0.01 to 100 nM

Give me measured IC50, please, for this compound: CCc1cc(CN2CCCS2(=O)=O)ccc1N(C)c1cc2c(cn1)ncn2C
0.01 to 100 nM

Give me measured IC50, please, for this compound: CCc1cc(-c2nnc(C)o2)ccc1N(C)c1cc2c(cn1)ncn2C
0.01 to 100 nM

Give me measured IC50, please, for this compound: CN(c1cc2c(cn1)ncn2C)c1c(F)cc(CNS(C)(=O)=O)cc1F
0.01 to 100 nM

Give me measured IC50, please, for this compound: CCc1cc(C2(C#N)CC2)ccc1N(C)c1cc2c(cn1)ncn2C
0.01 to 100 nM

Give me measured IC50, please, for this compound: CCc1cc(C(C#N)N2CCC[C@@H]2COC)ccc1N(C)c1cc2c(cn1)ncn2C (some centres unmarked)
0.01 to 100 nM

Give me measured IC50, please, for this compound: CCc1ccc(F)cc1N(C)c1cc2c(cn1)ncn2C
0.01 to 100 nM

Give me measured IC50, please, for this compound: CCc1cc(CNC)ccc1N(C)c1cc2c(cn1)ncn2C
0.01 to 100 nM

Give me measured IC50, please, for this compound: CCc1cc(C2(COS(=O)(=O)C(F)F)CCNC2)ccc1N(C)c1cc2c(cn1)ncn2C (centres unmarked)
0.01 to 100 nM
